meta.source: the supplement of paper PMC6555819

Recorded PBM binding z-score values for a group of sequences are listed next.
Tested on: THRa:RXRa (NR concentration 90 nM, RXRa partner concentration 90 nM)
method.notes: PBM binding z-score (relative to random genomic background probes); higher = stronger binding; sequences stand for … in GC…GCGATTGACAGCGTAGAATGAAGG
Answer using only a numeral; do not append any unit.

Solved cases (3 shown):
> print(dat)
                      record.sequence  result.number
1  GCTAGTTGGTCAGTCAAAGGTCACACACCGGTCG           3.52
2  AGAATGAGGTTATTCGTAGATCAGGGAAGAAAGT           2.32
3  CCTATTAGTTGACCATAAGGGAAACCGAAGCTCG          0.545

Look up PBM binding z-score: AGAATGAGGTTACCAAAGATCAGGGTAACGCTTG 3.1

Thanks! And ATCTCTAGGTAAAGTGCAGTGAAAGATCGATAGA ? 0.316

Thanks! And ATATGTAGGTTACATTCGGGTCATTCAGGCTATG ? 3.99

Thanks! And TCAGACAGGTGAAGGTTACTCAGGTACGCAGTCG ? 2.58

Thanks! And AGAATGAGGTTAGACGTAGATCAGGGAAGAAAGT ? 1.55

----------
System: PPARg DBDmut:RXRa IVT, anti-PPARg (DBD mutation: PPARg1 K132A/R137A, NR concentration 270 nM, RXRa partner concentration 90 nM)
method.notes: PBM binding z-score (relative to random genomic background probes); higher = stronger binding; sequences stand for … in GC…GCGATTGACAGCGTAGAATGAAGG
measured.quantity: PBM binding z-score
Answer using only a numeral; do not append any unit.

> print(dat)
                      record.sequence    measured.quantity  result.number
1  CGTCTAAGTTCAACTAAGGTAACGTAAAGCACGC  PBM binding z-score          0.378
2  CCTTACGGGTCAAGGTTATGGCACGGGTGGTACG  PBM binding z-score         -0.207
3  CCTCGGAGGACAGAAGGTCAGAGATGTCCGCTTT  PBM binding z-score          -1.91

Look up PBM binding z-score: CAAACTAGGTCACCGAGGTCAAAGTCCGTGCGTA 4.5

Thanks! And CAACCTAGGTCACAGAGGTCAAAGTCCGTGCGTA ? 0.378

Thanks! And CGTCCAAGGTCAGAAGGTCAGTGAAAGCGACGTG ? 0.15

----------
Recorded PBM binding z-score values for a group of sequences are listed next.
System: PPARa:RXRa (NR concentration 270 nM, RXRa partner concentration 90 nM)
method.notes: PBM binding z-score (relative to random genomic background probes); higher = stronger binding; sequences stand for … in GC…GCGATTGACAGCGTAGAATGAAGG
Answer using only a numeral; do not append any unit.

Solved cases (8 shown):
> print(dat)
                      record.sequence  result.number
1  GCCGCTAGGTCAGGTTGGTCAGCTAACGGGTACG           1.41
2  CCTAGTTAGTCAAGGTCACACACGCTATAGGTAC           3.99
3  ATCTCTAGGTACAAGTTCAGTGAATCCCGAGGAT           2.42
4  GTACCAAGGTGAATAGTTCGTTGATGAGTAGGCG           1.24
5  GCTGCTAGGTCAACTGATGGTCAGCTATAGCTCG           3.81
6  GATACAGGGTCAAGGCCTGAGTACGCGTATTGAT           5.35
7  TCTATTAGTTGAAGGGCATCCGACGAGTCCGTTT          0.934
8  GCTCGGAGGAGAAGGTCAGAGCTTTGTCCGTAGA           1.79

Look up PBM binding z-score: CGAACTTGGTCATTGACAGGACAGTGAATAGTAA 0.267

Thanks! And TCTTGTAGATCAAGCAGATTAAGAAAGCCTGAGT ? 0.442

Thanks! And CAAACTAGGTCACGAAAGGTCAGAGTCGAATGAC ? 5.96

----------
Test system: LXRa homodimer (NR concentration 270 nM)
method.notes: PBM binding z-score (relative to random genomic background probes); higher = stronger binding; sequences stand for … in GC…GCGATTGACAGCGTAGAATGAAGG
measured.quantity: PBM binding z-score
Answer using only a numeral; do not append any unit.

Solved cases (5 shown):
> print(dat)
                      record.sequence    measured.quantity  result.number
1  ATCTCTAGGTAAAGTTCAGTAAAAGATCGATAGA  PBM binding z-score            1.7
2  TGAGACAGGTGAAGGTAACTCAGGTACGCAGTCG  PBM binding z-score         -0.351
3  CTACCAGGGTGAACAAGGTCGTTGATTACTATTC  PBM binding z-score         0.0612
4  TCATATAGGTTAACAGGTGAAAGTCCGTAAGTTA  PBM binding z-score          0.586
5  CCTAGTTGGTCAGGACGTCACACACCGGATATGA  PBM binding z-score          0.373

Look up PBM binding z-score: TTACCAAGGTGAGCTGAGGTCGATGATCCAACTC -0.604

Thanks! And AGTCAAAGTTCCTCTAGGTAACGTAAGATATGCT ? -0.104

Thanks! And CGTCCAAGGTCAATGCTAGGTCCGTGAAAGCATT ? 0.519

Thanks! And CAACCTAGGTCAAGAGGTCAAAGTCCGCTTCCCG ? 6.16

Thanks! And TTACCAAGGTGAGCTGAGGTCGTTGATCCAACTC ? -0.429

----------
Tested on: PPARg:RXRa 270nM:90nM, anti-RXR (NR concentration 270 nM, RXRa partner concentration 90 nM)
method.notes: PBM binding z-score (relative to random genomic background probes); higher = stronger binding; sequences stand for … in GC…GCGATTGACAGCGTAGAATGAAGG
// map PBM binding z-score onto a label; ranges low range = under 0.7, mid range = from 0.7 up to 4, high range = 4 and over

> print(dat)
                      record.sequence   category
1  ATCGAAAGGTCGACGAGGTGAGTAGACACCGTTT  mid range
2  CGTCAAAATTCAAGGTAACGTAACAGAAAGCAGC  low range
3  TCTTGGAGGACACGAAAGGTCAGAGCTCGACATC  mid range

State the band of CGTCCAAGGTCTGAGAGGTCAGTGAATGCCGAGT mid range

Thanks! And ATCTCTAGGTAATGTTCAGTGAAAGATCGATAGA ? low range

Thanks! And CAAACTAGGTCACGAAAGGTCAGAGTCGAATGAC ? high range

Thanks! And TAGCCTAGGGCAGATCGGGCCAGTATACGCTATA ? low range

Thanks! And TAGCCTAGGTCATTCAAGGGCCAGTATAGAAAGC ? mid range

Thanks! And GATACAGGGTCAGGGCCAGAGTACGCGTATTGAT ? mid range

Thanks! And TCGAGTATGTTACCAATGGGGCATTCAGCTTTCT ? low range

----------
Recorded PBM binding z-score values for a group of sequences are listed next.
System: THRa homodimer (NR concentration 90 nM)
method.notes: PBM binding z-score (relative to random genomic background probes); higher = stronger binding; sequences stand for … in GC…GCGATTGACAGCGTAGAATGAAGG
Answer using only a numeral; do not append any unit.

Solved cases (5 shown):
> print(dat)
                      record.sequence                             assay.system  result.number
1  CCTTACGGGTCAATGACAGGTTATAGCATTTGGA  THRa homodimer (NR concentration 90 nM)        -0.0254
2  CCAGACTGGTGAAAGGTAACTCAGTCTGGTACGC  THRa homodimer (NR concentration 90 nM)         -0.494
3  CTCGAAAGGTCGTGCTCAGGTGTGTATACCAAAC  THRa homodimer (NR concentration 90 nM)            0.4
4  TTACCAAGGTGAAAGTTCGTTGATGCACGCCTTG  THRa homodimer (NR concentration 90 nM)          0.508
5  GCTATTAGTTGAAAGCGCAACCGAATGATTCTCG  THRa homodimer (NR concentration 90 nM)         -0.515

Look up PBM binding z-score: CCTTACGGGTCAAGAGGTTATAGCACGACGAGCG 0.0618

Thanks! And CGTCGAAGGTCAGAGAGGTCAGTGAATGCCGAGT ? 1.32

Thanks! And TCGAGTAAGTTAGTCGGGGCATTCAGCCAACATA ? -0.58

Thanks! And TCTGCTAGGTCAGTTGGTCAACTAACGAGCTGCC ? -0.321

Thanks! And TCGAGTAGGTTAGTCGAGGCATTCAGCCAACATA ? -0.612

Thanks! And TCATATAGGTAAATGGTGAAAGTCGGTGTGGTAA ? 0.202

Thanks! And GCGACGGGGGCATCAGCAGGTTACCATAACTTAA ? 1.61
